# Tested on: NCI-H522 lung
# protocol_text: NCI-60 one-dose screen, 48 h (100 = growth as untreated, 0 = no growth, -100 = all killed)
# test_conditions: 10 µM unless noted
About 83,000 compounds went through this panel and 20% of them were active in at least one assay; those are over-represented in the sample as a whole. Activity calls are given as the source filed them. Rule for the calls: active = growth percent below 10; inactive = the rest.
reported_metric: growth

# given_smiles, growth
records = [
    ("C#CCOc1ccc(/C=N\\Nc2nc(-c3ccc(C)cc3)cs2)cc1OC", "74.5% (inactive)"),
    ("CCCCCc1ccc(S(=O)(=O)Nc2cccc(-c3csc(NC(=O)CN4CCN(C)CC4)n3)c2)cc1", "89.5% (inactive)"),
]

Query the reported growth for NCI-H522 lung; item: CCn1c(SCC(=O)Nc2cccc(C(=O)/C=C/c3cc(OC)c(OC)c(OC)c3)c2)nc2ccccc2c1=O 38% (inactive)
